Test: Antiproliferative activity against human UACC257 cells assessed as cell growth at 10^-8 M after 48 hrs by sulforhodamine B assay
Type: functional
Conditions: UACC-257, 48 h, read-out: Activity

{"structureAsSmiles": "CNC(=O)c1cc(Oc2ccc3nc(NC(=O)Nc4ccc(Cl)c(C(F)(F)F)c4)sc3c2)ccn1", "growth at 0.01 µM (%)": 102}
{"structureAsSmiles": "CNC(=O)c1cc(Oc2ccc3nc(NC(=O)c4cc(C(F)(F)F)cc(C(F)(F)F)c4)sc3c2)ccn1", "growth at 0.01 µM (%)": 87}
{"structureAsSmiles": "CNC(=O)c1cc(Oc2ccc3nc(NC(=O)Nc4cc(C(F)(F)F)cc(C(F)(F)F)c4)sc3c2)ccn1", "growth at 0.01 µM (%)": 102}
{"structureAsSmiles": "CNC(=O)c1cc(Oc2ccc3nc(NC(=O)Nc4ccc(Cl)c(Cl)c4)sc3c2)ccn1", "growth at 0.01 µM (%)": 92}

###

System: SR
Assay: Antiproliferative activity against human SR cells assessed as cell growth at 10^-7 M after 48 hrs by sulforhodamine B assay
Assay type: functional
Conditions: read-out: Activity
assayReadout: growth at 0.1 µM (%)

{"structureAsSmiles": "CNC(=O)c1cc(Oc2ccc3nc(NC(=O)Nc4ccc(Cl)c(Cl)c4)sc3c2)ccn1", "assayReadout": "growth at 0.1 µM", "assayValue": 105}
{"structureAsSmiles": "CNC(=O)c1cc(Oc2ccc3nc(NC(=O)Nc4ccc(Cl)c(C(F)(F)F)c4)sc3c2)ccn1", "assayReadout": "growth at 0.1 µM", "assayValue": 105}
{"structureAsSmiles": "CNC(=O)c1cc(Oc2ccc3nc(NC(=O)Nc4cc(C(F)(F)F)cc(C(F)(F)F)c4)sc3c2)ccn1", "assayReadout": "growth at 0.1 µM", "assayValue": 91}
{"structureAsSmiles": "CNC(=O)c1cc(Oc2ccc3nc(NC(=O)c4cc(C(F)(F)F)cc(C(F)(F)F)c4)sc3c2)ccn1", "assayReadout": "growth at 0.1 µM", "assayValue": 89}

###

Test system: 786-0
Test: Antiproliferative activity against human 786-0 cells assessed as growth inhibition after 48 hrs by sulforhodamine B assay
Format: functional
Details: 786-0, 48 h
# note: exactly 2000 nM is not below, so it is Not met; use Met for GI50 strictly under it

{"structureAsSmiles": "CNC(=O)c1cc(Oc2ccc3nc(NC(=O)c4cc(C(F)(F)F)cc(C(F)(F)F)c4)sc3c2)ccn1", "assaySystem": "786-0", "cat": "Not met"}
{"structureAsSmiles": "CNC(=O)c1cc(Oc2ccc3nc(NC(=O)Nc4cc(C(F)(F)F)cc(C(F)(F)F)c4)sc3c2)ccn1", "assaySystem": "786-0", "cat": "Met"}
{"structureAsSmiles": "CNC(=O)c1cc(Oc2ccc(NC(=O)Nc3ccc(Cl)c(C(F)(F)F)c3)cc2)ccn1", "assaySystem": "786-0", "cat": "Not met"}
{"structureAsSmiles": "CNC(=O)c1cc(Oc2ccc3nc(NC(=O)Nc4ccc(Cl)c(Cl)c4)sc3c2)ccn1", "assaySystem": "786-0", "cat": "Not met"}
{"structureAsSmiles": "CNC(=O)c1cc(Oc2ccc3nc(NC(=O)Nc4ccc(Cl)c(C(F)(F)F)c4)sc3c2)ccn1", "assaySystem": "786-0", "cat": "Met"}

###

Below is a list of entries, each paired with its recorded growth at 1 µM value.
Assay: Antiproliferative activity against human Hs 578T cells assessed as cell growth at 10^-6 M after 48 hrs by sulforhodamine B assay
Assay type: functional
Details: read-out: Activity

{"structureAsSmiles": "CNC(=O)c1cc(Oc2ccc3nc(NC(=O)Nc4ccc(Cl)c(C(F)(F)F)c4)sc3c2)ccn1", "growth at 1 µM [%]": 65}
{"structureAsSmiles": "CNC(=O)c1cc(Oc2ccc3nc(NC(=O)Nc4cc(C(F)(F)F)cc(C(F)(F)F)c4)sc3c2)ccn1", "growth at 1 µM [%]": 73}
{"structureAsSmiles": "CNC(=O)c1cc(Oc2ccc3nc(NC(=O)Nc4ccc(Cl)c(Cl)c4)sc3c2)ccn1", "growth at 1 µM [%]": 108}
{"structureAsSmiles": "CNC(=O)c1cc(Oc2ccc3nc(NC(=O)c4cc(C(F)(F)F)cc(C(F)(F)F)c4)sc3c2)ccn1", "growth at 1 µM [%]": 94}

###

Experiment: Antiproliferative activity against human HCT116 cells assessed as cell growth at 10^-6 M after 48 hrs by sulforhodamine B assay
Type: functional
Details: HCT-116, 48 h, read-out: Activity
Below is a list of entries, each paired with its recorded growth at 1 µM value.

{"structureAsSmiles": "CNC(=O)c1cc(Oc2ccc3nc(NC(=O)Nc4ccc(Cl)c(Cl)c4)sc3c2)ccn1", "growth at 1 µM": "88%"}
{"structureAsSmiles": "CNC(=O)c1cc(Oc2ccc3nc(NC(=O)c4cc(C(F)(F)F)cc(C(F)(F)F)c4)sc3c2)ccn1", "growth at 1 µM": "99%"}
{"structureAsSmiles": "CNC(=O)c1cc(Oc2ccc3nc(NC(=O)Nc4cc(C(F)(F)F)cc(C(F)(F)F)c4)sc3c2)ccn1", "growth at 1 µM": "57%"}
{"structureAsSmiles": "CNC(=O)c1cc(Oc2ccc3nc(NC(=O)Nc4ccc(Cl)c(C(F)(F)F)c4)sc3c2)ccn1", "growth at 1 µM": "80%"}

###

Below is a list of entries, each paired with its recorded LC50 (concentration killing 50% of cells) value.
System: A498
Assay: Antiproliferative activity against human A498 cells assessed as growth inhibition after 48 hrs by sulforhodamine B assay
Assay type: functional
Conditions: A498, 48 h
assayReadout: LC50 (concentration killing 50% of cells) (µM)

{"structureAsSmiles": "CNC(=O)c1cc(Oc2ccc3nc(NC(=O)Nc4ccc(Cl)c(Cl)c4)sc3c2)ccn1", "qualifierSymbol": ">", "assayValue": 100}
{"structureAsSmiles": "CNC(=O)c1cc(Oc2ccc3nc(NC(=O)Nc4ccc(Cl)c(C(F)(F)F)c4)sc3c2)ccn1", "qualifierSymbol": ">", "assayValue": 100}
{"structureAsSmiles": "CNC(=O)c1cc(Oc2ccc3nc(NC(=O)Nc4cc(C(F)(F)F)cc(C(F)(F)F)c4)sc3c2)ccn1", "qualifierSymbol": "=", "assayValue": 5.97}
{"structureAsSmiles": "CNC(=O)c1cc(Oc2ccc3nc(NC(=O)c4cc(C(F)(F)F)cc(C(F)(F)F)c4)sc3c2)ccn1", "qualifierSymbol": "=", "assayValue": 30.9}

###

Assay: Antiproliferative activity against human HL-60(TB) cells assessed as cell growth at 10^-5 M after 48 hrs by sulforhodamine B assay
Assay type: functional
Conditions: HL-60, 48 h, read-out: Activity

{"structureAsSmiles": "CNC(=O)c1cc(Oc2ccc3nc(NC(=O)Nc4cc(C(F)(F)F)cc(C(F)(F)F)c4)sc3c2)ccn1", "growth at 10 µM / %": -46}
{"structureAsSmiles": "CNC(=O)c1cc(Oc2ccc3nc(NC(=O)c4cccc(F)n4)sc3c2)ccn1", "growth at 10 µM / %": 78.2}
{"structureAsSmiles": "CNC(=O)c1cc(Oc2ccc3nc(NC(=O)Nc4ccc(C(F)(F)F)cc4)sc3c2)ccn1", "growth at 10 µM / %": 120}
{"structureAsSmiles": "CNC(=O)c1cc(Oc2ccc3nc(NC(=O)c4ccc5ncccc5c4)sc3c2)ccn1", "growth at 10 µM / %": 87.5}
{"structureAsSmiles": "CNC(=O)c1cc(Oc2ccc3nc(NC(=O)Nc4ccc(Cl)cc4)sc3c2)ccn1", "growth at 10 µM / %": 98.9}
{"structureAsSmiles": "CNC(=O)c1cc(Oc2ccc3nc(NC(=O)Nc4ccc(Cl)c(C(F)(F)F)c4)sc3c2)ccn1", "growth at 10 µM / %": 52}

###

Experiment: Antiproliferative activity against human HCT15 cells assessed as growth inhibition after 48 hrs by sulforhodamine B assay
Type: functional
Conditions: HCT-15, 48 h
Below is a list of entries, each paired with its recorded GI50 value.
assayReadout: GI50 (nM)

{"structureAsSmiles": "CNC(=O)c1cc(Oc2ccc(NC(=O)Nc3ccc(Cl)c(C(F)(F)F)c3)cc2)ccn1", "assayReadout": "GI50", "quantityUnit": "nM", "assayValue": 2510}
{"structureAsSmiles": "CNC(=O)c1cc(Oc2ccc3nc(NC(=O)Nc4cc(C(F)(F)F)cc(C(F)(F)F)c4)sc3c2)ccn1", "assayReadout": "GI50", "quantityUnit": "nM", "assayValue": 1500}
{"structureAsSmiles": "CNC(=O)c1cc(Oc2ccc3nc(NC(=O)Nc4ccc(Cl)c(Cl)c4)sc3c2)ccn1", "assayReadout": "GI50", "quantityUnit": "nM", "assayValue": 3710}
{"structureAsSmiles": "CNC(=O)c1cc(Oc2ccc3nc(NC(=O)c4cc(C(F)(F)F)cc(C(F)(F)F)c4)sc3c2)ccn1", "assayReadout": "GI50", "quantityUnit": "nM", "assayValue": 3970}
{"structureAsSmiles": "CNC(=O)c1cc(Oc2ccc3nc(NC(=O)Nc4ccc(Cl)c(C(F)(F)F)c4)sc3c2)ccn1", "assayReadout": "GI50", "quantityUnit": "nM", "assayValue": 1950}
